# procedure-details: Single-dose pharmacokinetics, monkey
# Format: in vivo
# test-context: serum, iv, 3 mg/kg
measured-quantity: Cmax (µg/mL)
Numbers only, in µg/mL.

input: Respond only with Cmax recorded for CCCN1CC(Oc2ccc([C@@H]3c4[nH]c5ccccc5c4C[C@@H](C)N3CC(C)(C)F)cc2)C1
output: 0.651

----------
Provide the recorded hepatocyte CLint for the entries that follow.
# procedure-details: Human hepatocyte stability
# Assay type: in vitro ADME
# test-context: hepatocytes
Give bare numbers, in µL/min/1e6 cells.

Worked set:
>>> readout_number("C[C@@H]1Cc2c([nH]c3ccccc23)[C@@H](c2c(F)cc(OCCN3CC(CF)C3)cc2F)N1CC(C)(C)F")
5.1
>>> readout_number("CCCN1CC(Oc2ccc([C@@H]3c4[nH]c5ccccc5c4C[C@@H](C)N3CC(F)(F)COC)cc2)C1")
14.1
>>> readout_number("CCCN1CC(Oc2ccc([C@@H]3c4[nH]c5ccccc5c4C[C@@H](C)N3CC(F)(F)CO)cc2)C1")
18.2

As a next step, examine the molecule that follows.
input: Specify reported hepatocyte CLint for the molecule shown: CCCN1CC(Oc2ccc([C@@H]3c4[nH]c5ccccc5c4C[C@@H](C)N3CC(C)(C)F)cc2)C1
output: 10.7

----------
# procedure-details: Single-dose pharmacokinetics, rat
# Assay type: in vivo
# test-context: Sprague-Dawley, serum, po, 5 mg/kg
measured-quantity: bioavailability

input: Give bioavailability for CCCN1CC(Oc2ccc([C@@H]3c4[nH]c5ccccc5c4C[C@@H](C)N3CC(C)(C)F)cc2)C1
output: 55%

----------
# procedure-details: Single-dose pharmacokinetics, dog
# Assay type: in vivo
# test-context: Beagle, serum, iv, 10 mg/kg
measured-quantity: Vd

input: Give the reported Vd for this compound. CCCN1CC(Oc2ccc([C@@H]3c4[nH]c5ccccc5c4C[C@@H](C)N3CC(C)(C)F)cc2)C1
output: 16 L/kg

----------
# procedure-details: Single-dose pharmacokinetics, rat
# Format: in vivo
# test-context: Sprague-Dawley, serum, po, 5 mg/kg
measured-quantity: Tmax (h)
Give bare numbers, in h.

input: Please supply the value of reported Tmax for the item CCCN1CC(Oc2ccc([C@@H]3c4[nH]c5ccccc5c4C[C@@H](C)N3CC(C)(C)F)cc2)C1 [compound 21]
output: 1.5

----------
# assayed-target: ERβ (Homo sapiens, UniProt Q92731)
# Sequence (Q92731 whole entry, species assumed): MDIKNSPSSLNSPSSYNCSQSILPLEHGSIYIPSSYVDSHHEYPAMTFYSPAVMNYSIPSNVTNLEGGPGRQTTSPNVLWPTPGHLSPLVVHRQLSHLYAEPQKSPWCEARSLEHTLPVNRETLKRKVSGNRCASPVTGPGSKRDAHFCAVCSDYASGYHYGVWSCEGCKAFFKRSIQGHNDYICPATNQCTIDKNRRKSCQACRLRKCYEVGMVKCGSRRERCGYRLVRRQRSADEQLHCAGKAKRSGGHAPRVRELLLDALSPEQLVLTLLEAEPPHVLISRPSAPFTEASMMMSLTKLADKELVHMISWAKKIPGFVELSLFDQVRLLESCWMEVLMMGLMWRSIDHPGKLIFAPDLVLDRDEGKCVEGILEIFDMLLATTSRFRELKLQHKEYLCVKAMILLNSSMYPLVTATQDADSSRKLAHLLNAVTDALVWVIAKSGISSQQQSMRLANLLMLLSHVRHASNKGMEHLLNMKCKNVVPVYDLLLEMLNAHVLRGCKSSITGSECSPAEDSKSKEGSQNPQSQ
# procedure-details: Reporter assay of gene transcription activity, ERβ
# Type: cell-based
# test-context: Erβ pIC50, agonist mode, agonist mode
pIC50: −log10 of the molar value.
measured-quantity: pIC50

input: Write down the reported pIC50 (system: ERβ (Homo sapiens, UniProt Q92731)) of CCCN1CC(Oc2ccc([C@@H]3c4[nH]c5ccccc5c4C[C@@H](C)N3CC(C)(C)F)cc2)C1
output: < 5.50

----------
# procedure-details: Single-dose pharmacokinetics, dog
# Format: in vivo
# test-context: Beagle, serum, po, 10 mg/kg
measured-quantity: AUC (ng·h/mL)
Numbers only, in ng·h/mL.

input: Provide only the value of recorded AUC for CCCN1CC(Oc2ccc([C@@H]3c4[nH]c5ccccc5c4C[C@@H](C)N3CC(C)(C)F)cc2)C1
output: 33700

----------
# procedure-details: Single-dose pharmacokinetics, monkey
# Assay type: in vivo
# test-context: serum, iv, 3 mg/kg
measured-quantity: AUC

input: Specify reported AUC for the compound shown: CCCN1CC(Oc2ccc([C@@H]3c4[nH]c5ccccc5c4C[C@@H](C)N3CC(C)(C)F)cc2)C1
output: 3420 ng·h/mL

----------
# procedure-details: Single-dose pharmacokinetics, mouse
# Format: in vivo
# test-context: serum, po, 5 mg/kg
measured-quantity: Cmax (ng/mL)
Give bare numbers, in ng/mL.

input: Give the measured Cmax for CCCN1CC(Oc2ccc([C@@H]3c4[nH]c5ccccc5c4C[C@@H](C)N3CC(C)(C)F)cc2)C1
output: 91

----------
# procedure-details: Single-dose pharmacokinetics, mouse
# Assay type: in vivo
# test-context: serum, po, 5 mg/kg
measured-quantity: AUC
The reply must contain the numeric value and, after it, the unit.

input: Tell me AUC reported for CCCN1CC(Oc2ccc([C@@H]3c4[nH]c5ccccc5c4C[C@@H](C)N3CC(C)(C)F)cc2)C1
output: 1030 ng·h/mL

----------
# procedure-details: Mouse hepatocyte stability
# Type: in vitro ADME
# test-context: hepatocytes
measured-quantity: hepatocyte CLint (µL/min/1e6 cells)
Give bare numbers, in µL/min/1e6 cells.

Solved cases below.
>>> readout_number("C[C@@H]1Cc2c([nH]c3ccccc23)[C@@H](c2ccc(OCCN3CC(CF)C3)c(F)c2)N1CC(C)(C)F [compound 26]")
6.1
>>> readout_number("CCCN1CC(Oc2ccc([C@@H]3c4[nH]c5ccccc5c4C[C@@H](C)N3CC(F)(F)COC)cc2)C1 [compound 41]")
18.2
>>> readout_number("CCCN1CC(Oc2ccc([C@@H]3c4[nH]c5ccccc5c4C[C@@H](C)N3CC(F)(F)CO)cc2)C1 [compound 38]")
6
>>> readout_number("CCCN1CC(Oc2ccc([C@@H]3c4[nH]c5ccccc5c4C[C@@H](C)N3C[C@@H](C)CO)cc2)C1 [compound 40]")
7.6

Now for a further compound.
input: Please report the measured hepatocyte CLint for C[C@@H]1Cc2c([nH]c3ccccc23)[C@@H](c2ccc(OCCN3CC(CF)C3)cc2)N1CC(C)(C)F [compound 23]
output: 4.3

----------
# assayed-target: UniProtKB P10275
# Sequence (P10275 1-920): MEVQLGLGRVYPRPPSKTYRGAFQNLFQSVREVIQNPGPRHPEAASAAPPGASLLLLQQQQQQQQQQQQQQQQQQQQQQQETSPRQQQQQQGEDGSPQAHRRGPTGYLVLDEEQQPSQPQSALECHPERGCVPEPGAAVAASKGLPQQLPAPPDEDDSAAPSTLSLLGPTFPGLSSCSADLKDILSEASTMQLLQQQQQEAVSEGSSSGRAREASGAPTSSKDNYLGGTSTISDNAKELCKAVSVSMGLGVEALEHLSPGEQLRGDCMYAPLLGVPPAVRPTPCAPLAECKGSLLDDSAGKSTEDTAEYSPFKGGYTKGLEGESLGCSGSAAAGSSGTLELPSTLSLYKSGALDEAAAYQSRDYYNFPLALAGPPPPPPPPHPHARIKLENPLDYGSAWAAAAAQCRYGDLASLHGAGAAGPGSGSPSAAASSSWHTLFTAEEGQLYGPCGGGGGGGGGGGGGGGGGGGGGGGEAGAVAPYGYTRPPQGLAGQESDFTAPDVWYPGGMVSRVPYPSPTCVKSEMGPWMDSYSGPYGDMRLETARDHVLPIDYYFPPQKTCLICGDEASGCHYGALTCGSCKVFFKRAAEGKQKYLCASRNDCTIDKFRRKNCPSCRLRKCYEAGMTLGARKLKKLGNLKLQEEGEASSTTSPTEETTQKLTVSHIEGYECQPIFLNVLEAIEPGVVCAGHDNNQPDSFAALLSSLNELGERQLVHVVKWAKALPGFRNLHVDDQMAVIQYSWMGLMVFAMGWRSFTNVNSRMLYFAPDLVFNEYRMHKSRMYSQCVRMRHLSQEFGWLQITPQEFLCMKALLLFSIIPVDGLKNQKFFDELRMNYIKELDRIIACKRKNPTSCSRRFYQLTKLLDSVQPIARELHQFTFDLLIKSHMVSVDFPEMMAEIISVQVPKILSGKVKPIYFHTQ
# procedure-details: Reporter assay of gene transcription activity, AR
# Format: cell-based
# test-context: AR pIC50, agonist mode, reporter assay, agonist mode
measured-quantity: IC50

input: Report measured IC50; entry is CCCN1CC(Oc2ccc([C@@H]3c4[nH]c5ccccc5c4C[C@@H](C)N3CC(C)(C)F)cc2)C1 [compound 21]
output: > 3.16 µM

----------
# procedure-details: Single-dose pharmacokinetics, mouse
# Type: in vivo
# test-context: serum, iv, 0.5 mg/kg
measured-quantity: Cmax (ng/mL)
One number for each entry, in ng/mL.

input: In one line, give reported Cmax of the entry CCCN1CC(Oc2ccc([C@@H]3c4[nH]c5ccccc5c4C[C@@H](C)N3CC(C)(C)F)cc2)C1 .
output: 29

----------
# assayed-target: ERβ (Homo sapiens, UniProt Q92731)
# procedure-details: Reporter assay of gene transcription activity, ERβ
# Type: cell-based
# test-context: Erβ pIC50, antag. mode, antag. mode
measured-quantity: IC50 (nM)
One number for each entry, in nM.

input: Give the value of IC50 reported for the following: CCCN1CC(Oc2ccc([C@@H]3c4[nH]c5ccccc5c4C[C@@H](C)N3CC(C)(C)F)cc2)C1
output: 3.16

----------
# procedure-details: In vivo mouse oral single dose PK
# test-context: plasma, po
measured-quantity: Cmax (ng/mL)
Answers are plain numbers, in ng/mL.

>>> readout_number("CCCN1CC(Oc2cc(F)c([C@@H]3c4[nH]c5ccccc5c4C[C@@H](C)N3CC(C)(C)F)c(F)c2)C1")
219

Dear colleague, could you please provide Cmax for the compounds listed below?
1. CCCN1CC(Oc2ccc([C@@H]3c4[nH]c5ccccc5c4C[C@@H](C)N3CC(C)(C)F)cc2)C1
2. C[C@@H]1Cc2c([nH]c3ccccc23)[C@@H](c2ccc(OCCN3CC(CF)C3)cc2)N1CC(C)(C)F
3. C[C@@H]1Cc2c([nH]c3ccccc23)[C@@H](c2c(F)cc(OCCN3CC(CF)C3)cc2F)N1CC(C)(C)F

output:
1. 121
2. 186
3. 112
